The measurements presented in this section are drawn from patent US9977309B2.

Measured Saturation wt % in decane accompanies every entry in the list below.
# experimental protocol: Saturation solubility of dyes in decane
# Type: physicochemical
recorded endpoint: Saturation wt % in decane

compound="CCCCCCCCCCCCCCc1ccc(/N=N/c2c(C)cc(=O)n(CC(CC)CCCC)c2O)cc1 (stereo not drawn) [Dye 6]" endpoint_result="3.72 wt %"
compound="CCCCCCCCN(CCCCCCCC)c1ccc(/N=N/c2ccc([N+](=O)[O-])cc2)c(C)c1 [Dye 8]" endpoint_result="10.50 wt %"
compound="CCCCCCCCN(CCCCCCCC)c1ccc(/N=N/c2snc(C)c2C#N)c(NC(C)=O)c1 [Dye 4]" endpoint_result="0.19 wt %"
compound="CCCCCCCCCCCCCCc1ccc(/N=N/c2c(C)c(C#N)c(=O)n(CC(CC)CCCC)c2O)cc1 (stereo not drawn) [Dye 5]" endpoint_result="1.03 wt %"
compound="CCCCc1ccc(/N=N/c2ccc(N(CCCC)CCCC)cc2)cc1 [Dye 7]" endpoint_result="9.95 wt %"
compound="CCCCCCCCCCCCCCCCCCN(CCCCCCCCCCCCCCCCCC)c1cc(NC(C)=O)c(/N=N/c2c(C#N)cc([N+](=O)[O-])cc2C#N)cc1OC [Dye 1]" endpoint_result="0.003 wt %"
